Test system: MCF7
procedure.details: NCI tumour cell line growth inhibition, 48 h
The source made the active and inactive calls. Rule as the data show it: active = GI50 up to about 1.1 µM and inactive = higher.
endpoint.label: GI50

[[record]]
compound = "CCOC(=O)Cc1nn2c(=O)cc(C)nc2s1"
endpoint_label = "GI50"
result = "> 100 µM (inactive)"

[[record]]
compound = "COc1ccc(OC)c(C2CCc3c(cnc4nc(N)nc(N)c34)C2)c1 (stereo unspecified)"
endpoint_label = "GI50"
result = "10.1 µM (inactive)"


State recorded GI50 for all listed compounds.
1. COC(=O)c1c(O)ccc2c1c1c(n2C)C(=O)c2ccccc2C1=O
2. CN(C)/C=N\c1cccc2cnccc12
3. CC(=O)OCC1OC(n2c(C#N)cc(=O)[nH]c2=O)CC1OC(C)=O (stereo unspecified)
4. O=C1CSC(c2ccc(Cl)cc2)N1c1ccc(Oc2ccc(Cl)cc2)c(Cl)c1 (stereo unspecified)

**A:**
1. 9.18 µM (inactive)
2. > 100 µM (inactive)
3. > 100 µM (inactive)
4. 21.9 µM (inactive)

State recorded GI50 for all listed compounds.
1. CCOC(NC(=O)CC)(C(F)(F)F)C(F)(F)F
2. Cc1cn(CC2=NC3CCCCC3N2)c(=O)[nH]c1=O (stereo unspecified)
3. NS(=O)(=O)c1ccc(/C=C/c2ccc(O)c(O)c2)cc1
4. CCOC(=O)c1ccc(Nc2nc3ccc(C(F)(F)F)cc3nc2-c2ccccc2)cc1
5. C=CC1(C)OC2(CCN(C(=O)OCC)CC2)OC1C (stereo unspecified)
6. COC(=O)c1ccccc1C1CN=NC12Cc1ccc3c(c1C2=O)CCC3 (stereo unspecified)

**A:**
> 100 µM (inactive)
> 100 µM (inactive)
20.8 µM (inactive)
> 100 µM (inactive)
> 100 µM (inactive)
34.9 µM (inactive)

---

Would you mind telling me the reported GI50 of each entry?
Tested on: RPMI-8226
procedure.details: NCI tumour cell line growth inhibition, 48 h
Calls of active or inactive are those of the source. Rule as the data show it: active = GI50 up to about 1.1 µM and inactive = higher.

[[record]]
compound = "CCC(c1c[nH]c2ccc(Br)cc12)c1c[nH]c2ccc(Br)cc12"
subject_of_test = "RPMI-8226"
result = "2.5 µM (inactive)"

[[record]]
compound = "C#CC1(O)CCC2C3CCc4cc(Oc5nc(F)nc(-c6c7ccccc7c7n6CCS7)n5)ccc4C3CC[C@@]21C (stereo not given in full)"
subject_of_test = "RPMI-8226"
result = "19.6 µM (inactive)"

[[record]]
compound = "[N-]=[N+]=NC(CBr)c1cn([C@H]2C[C@H](O)[C@@H](CO)O2)c(=O)[nH]c1=O (stereo not given in full)"
subject_of_test = "RPMI-8226"
result = "> 100 µM (inactive)"

[[record]]
compound = "C[C@H]1C[C@H](C)c2ccccc2N(C)/C1=N\\c1ccccc1"
subject_of_test = "RPMI-8226"
result = "36.7 µM (inactive)"

[[record]]
compound = "CCOC(=O)Cc1nn2c(=O)cc(C)nc2s1"
subject_of_test = "RPMI-8226"
result = "> 100 µM (inactive)"

[[record]]
compound = "COc1cc2oc(=O)cc(C)c2cc1[N+](=O)[O-]"
subject_of_test = "RPMI-8226"
result = "27 µM (inactive)"

[[record]]
compound = "COC1(OC)C2(Cl)C(Cl)=C(Cl)C1(Cl)C1C=CC=CC12 (stereo not given)"
subject_of_test = "RPMI-8226"
result = "39.7 µM (inactive)"

[[record]]
compound = "COC(=O)/C=C(/C(=O)OC)c1cc2ccc3c([nH]c4ccccc43)c(C)c-2c1"
subject_of_test = "RPMI-8226"
result = "3.72 µM (inactive)"

[[record]]
compound = "Cc1cc(N(CCC#N)CCC#N)ccc1/C=C/C(=O)Nc1ccccc1Cl"
subject_of_test = "RPMI-8226"
result = "> 100 µM (inactive)"


**Q:** RPMI-8226 / GI50 / O=P1(c2ccccc2)C2=CCC=CC2C(c2ccccc2)N1Cc1ccccc1 (stereo not given) : value?
**A:** 13.3 µM (inactive)

---

Would you mind telling me the reported GI50 of each entry?
Tested on: HT-29
procedure.details: NCI tumour cell line growth inhibition, 48 h
The source made the active and inactive calls. Cut-off read from the data, not from the text of the source: active = GI50 up to about 1.1 µM and inactive = higher.

[[record]]
compound = "CC(C)CCCC(C)[C@H]1CCC2[C@@H]3CCC4Nc5nocc5C[C@]4(C)C3CC[C@@]21C (stereo partly specified)"
result = "18.5 µM (inactive)"

[[record]]
compound = "O=C(Nc1nn(C(=O)c2cccnc2)c(=O)s1)c1ccc(Cl)cc1"
result = "> 100 µM (inactive)"

[[record]]
compound = "Oc1c(C(Nc2ccccn2)c2ccccc2)ccc2cccnc12 (stereo unspecified)"
result = "4.55 µM (inactive)"


State recorded GI50 for all listed compounds.
1. O=C(NC(OCc1ccccc1)(C(F)(F)F)C(F)(F)F)OCc1ccccc1
2. COc1ccc(-c2oc3ccc(C)cc3c(=O)c2O)cc1
3. Nc1cccc(C(=O)/C=C/c2ccccc2O)c1

**A:**
1. 18 µM (inactive)
2. > 100 µM (inactive)
3. 68.2 µM (inactive)

---

Tested on: NCI-H226
procedure.details: NCI tumour cell line growth inhibition, 48 h
The source made the active and inactive calls. Cut-off read from the data, not from the text of the source: active = GI50 up to about 1.1 µM and inactive = higher.
Select the correct class. Options are Yes = active, No = inactive and nothing else.

Worked examples follow.
[[record]]
compound = "COc1ccc(OC)c(C2CCc3c(cnc4nc(N)nc(N)c34)C2)c1 (centres undefined)"
class_name = "No"

[[record]]
compound = "Cc1ccc(/N=C2\\OP(=O)(Nc3ccc(C)cc3)Oc3ccccc32)cc1 (centres undefined)"
class_name = "No"

[[record]]
compound = "Cc1cc(S(=O)(=O)Nc2nc3ccccc3nc2-c2ccc(Cl)cc2)c(S)cc1Cl"
class_name = "No"

[[record]]
compound = "COc1cc2c(cc1OCCCCN1C(=O)c3cccc4cccc(c34)C1=O)N=C[C@@H]1CCCN1C2=O"
class_name = "No"

[[record]]
compound = "N#C/N=C(/N)c1sc2nc3c(c(-c4ccc(Br)cc4)c2c1N)CCCC3"
class_name = "No"

[[record]]
compound = "Nc1ncnc2c1ncn2C1OC(CSCC(F)(F)F)C(O)C1O (centres undefined)"
class_name = "No"

[[record]]
compound = "Cc1ccc(C(=O)NC2C(=O)NC(C(C)C)C(=O)N3CCCC3C(=O)N(C)CC(=O)N(C)C(C(C)C)C(=O)OC2C)c2c1Oc1c(c(C(=O)NC3C(=O)NC(C(C)C)C(=O)N4CCCC4C(=O)N(C)CC(=O)N(C)C(C(C)C)C(=O)OC3C)c3nc(-c4ccccc4)c(=O)oc3c1C)N2 (centres undefined)"
class_name = "Yes"

[[record]]
compound = "COC1C(OC(=O)c2ccc(C)[nH]2)C(O)C(Oc2ccc3c(O)c(NC(=O)c4ccc(O)c(CC=C(C)C)c4)c(=O)oc3c2Cl)OC1(C)C (centres undefined)"
class_name = "No"


**Q:** For CC(C)CCCC(C)[C@H]1CCC2[C@@H]3CCC4Nc5nocc5C[C@]4(C)C3CC[C@@]21C (some centres undefined) , what call appears in the results of this test?
**A:** No

---

Would you mind telling me the reported GI50 of each entry?
Test system: LOX IMVI
procedure.details: NCI tumour cell line growth inhibition, 48 h
Active and inactive are the calls of the source. Cut-off read from the data, not from the text of the source: active = GI50 up to about 1.1 µM and inactive = higher.

In the examples that follow, each entry is paired with its recorded GI50.
[[record]]
compound = "COc1cc2cc3c4c(cc(OC)c(OC)c4c2cc1OC)CCN3C"
result = "5.25 µM (inactive)"

[[record]]
compound = "CN(C)C(=S)/N=c1\\ss/c(=N\\S(=O)(=O)c2ccccc2)n1C"
result = "> 100 µM (inactive)"

[[record]]
compound = "CC(C)C1N(C)c2ccc(Cl)cc2[C@H]2c3ccccc3CCN12 (stereo not given in full)"
result = "31.6 µM (inactive)"

[[record]]
compound = "NC(=O)c1ncn2c1NCC1OC2C(O)C1O (stereo not given)"
result = "> 100 µM (inactive)"

[[record]]
compound = "C(/C=N/c1ccccc1)=C(/Nc1ccccc1)c1ccc2ccccc2c1"
result = "1.53 µM (inactive)"


State recorded GI50 for all listed compounds.
1. COC1C(OC(=O)c2ccc(C)[nH]2)C(O)C(Oc2ccc3c(O)c(NC(=O)c4ccc(O)c(CC=C(C)C)c4)c(=O)oc3c2Cl)OC1(C)C (stereo not given)
2. CC(=O)OCC1OC(n2c(C#N)cc(=O)[nH]c2=O)CC1OC(C)=O (stereo not given)
3. CCOP(=O)(C/C=C/Cn1ncc(=O)[nH]c1=O)OCC

**A:**
1. 18.1 µM (inactive)
2. > 100 µM (inactive)
3. > 100 µM (inactive)

State recorded GI50 for all listed compounds.
1. Nc1c(Cl)ncnc1N[C@@H]1C[C@H]1CO
2. COC(=O)C(=O)C(C(=O)C(=O)Nc1cc(C)ccc1C)c1nc2ccccc2nc1O (stereo not given)

**A:**
1. > 100 µM (inactive)
2. > 100 µM (inactive)

Each recorded value in this set is attributed to ChEMBL document CHEMBL1201862.
